system: ApoA-I mRNA; test: ApoA-I mRNA quantitation in HepG2 cells (real-time PCR); format: cell-based; parameters: key: Active: An active compound is one that causes a >15% increase in ApoA-I mRNA at a concentration less than or equal to 100 uM; conditions: concentration less than or equal to 100 uM, fold induction relative to DMSO control
ENDPOINT_LABEL: Effect on ApoA-I mRNA levels

1) COc1cc(OC)c2c(=O)[nH]c(-c3cccc(-c4ccc(SC)cc4)n3)nc2c1 = Active
2) COc1cc(O)c2c(=O)[nH]c(-c3cc(C)c(O)c(C)c3)nc2c1 = Active
3) COc1cc(OC)c2c(=O)[nH]c(-c3cc(C)c(OC)c(C)c3)cc2n1 = Active
4) COc1cc(OC)c2cnc(-c3cc(C)c(O)c(C)c3)cc2c1 = Active
5) COc1cc(OC)c2c(=O)[nH]c(-c3ccc(N(CCO)CCO)cc3)nc2c1 = Active
